tested on: human plasma proteins; test: Human plasma protein binding by equilibrium dialysis with UPLC-MS/MS; format: in vitro ADME; conditions: human, human plasma (equilibrium dialysis against phosphate buffer)
Kd at 72 h values by entry
valueKind: Kd at 72 h

>>> valuereported("C[C@@H]1O[C@@H](Oc2c(-c3ccc(O)c(O)c3)oc3cc(O)cc(O)c3c2=O)[C@H](O)[C@H](O)[C@H]1O")
"5.29 µM"
>>> valuereported("O=c1cc(-c2ccc(O)cc2)oc2c([C@@H]3O[C@H](CO)[C@@H](O)[C@H](O)[C@H]3O)c(O)cc(O)c12")
"19.7 µM"
>>> valuereported("O=c1cc(-c2ccc(O)c(O)c2)oc2c([C@@H]3O[C@H](CO)[C@@H](O)[C@H](O)[C@H]3O)c(O)cc(O)c12")
"26.6 µM"
